Each recorded value in this set is attributed to PubChem BioAssay (NCI).

# System: 786-0 renal
# assay.protocol: NCI tumour cell line growth inhibition, 48 h; in the data active = GI50 below about 0.43 µM; inactive = the rest
Lab note: assign the record to one of YES for active, NO for inactive

Check out these entries, answers already filled in.
[
  {
    "compound": "Nc1nc(Nc2ccc3c(c2)CCC(N2CCCC2)CC3)nn1-c1cc2c(nn1)-c1ccccc1CCC2 (stereo not given)",
    "class": "NO"
  },
  {
    "compound": "Clc1ccc(-c2cn(-c3ccccc3)c(-c3ccccc3)n2)c(Cl)c1",
    "class": "NO"
  },
  {
    "compound": "C=C1C(=O)O[C@H]2[C@H]1CC/C(COC(=O)C(=O)c1cn(C)c3ccc(OC)cc13)=C\\CC[C@@]1(C)O[C@@H]21",
    "class": "NO"
  }
]

Query: Tell me the assay call for COc1cc2c3c(n(C)c(=O)c2cc1OC)-c1cc2c(cc1/C3=C\[C@@H](N)CCCCN)OCO2 please.
Response: NO

Query: Try O=C1C(=O)c2c(nc3ncccn23)-c2ccccc21 next.
Response: YES

Query: Try COc1cccc2c(Nc3ccc(C(=O)NCCN(C)C)cc3)cc(-c3ccccc3)nc12 next.
Response: NO

Query: Try CC12CCC(O)CC1CCC1C2CCC2(C)C(C3=CC(=O)OC3)CCC12 (stereo not given) next.
Response: NO

Query: Try CCCCC#Cc1cccc(=O)o1 next.
Response: NO

Query: Try CCOC(=O)c1cnc2c(cnn2CC)c1NN=C(C)C next.
Response: NO

Query: Try Clc1ccc(Nc2nc3ccccc3c3occc23)cc1 next.
Response: NO

---

# Test system: EKVX NSCLC
# assay.protocol: NCI tumour cell line growth inhibition, 48 h; in the data active = GI50 below about 0.43 µM; inactive = the rest
Lab note: assign the record to one of True = active, False = inactive

Check out these entries, answers already filled in.
[
  {
    "molecule": "Oc1ccc(-c2nc3ccc4[nH]ncc4c3c3c2CCCC3)c2cccnc12",
    "target": "EKVX NSCLC",
    "class": "True"
  },
  {
    "molecule": "COc1cc2c3c(n(C)c(=O)c2cc1OC)-c1cc2c(cc1/C3=C\\[C@@H](N)CCCCN)OCO2",
    "target": "EKVX NSCLC",
    "class": "False"
  },
  {
    "molecule": "Cc1ccc(-n2c(-c3ccc(Cl)cc3)cs/c2=N\\NC(=O)COc2n[nH]c(=O)c3ccccc23)cc1",
    "target": "EKVX NSCLC",
    "class": "False"
  },
  {
    "molecule": "C=C(C(=O)OC)[C@@H]1C[C@@H](O)[C@]2(C)CC/C=C(\\C)CCC[C@H](C)[C@H](O)C1O2",
    "target": "EKVX NSCLC",
    "class": "False"
  },
  {
    "molecule": "COc1cccc2c(Nc3ccc(C(=O)NCCN(C)C)cc3)cc(-c3ccccc3)nc12",
    "target": "EKVX NSCLC",
    "class": "False"
  }
]

Now let's try a different one.
Query: Tell me the assay call for COc1ccc2c(c1)C(=O)c1c-2n(CCCCl)c(=O)c2cc(N(C)C)ccc12 please.
Response: False

---

# Test system: RXF 393 renal
# assay.protocol: NCI tumour cell line growth inhibition, 48 h
Here, each record is paired with measured log10(TGI) data.
Scale: decimal log of TGI, TGI in µM.

Query: Quick check: log10(TGI) of COc1ccc(Cn2cc(Cn3c(=O)c(-c4nc5ccccc5[nH]4)cc4ccccc43)nn2)c(OC)c1OC ?
Response: -0.31
